B1: MGC16075 (parent)
chain: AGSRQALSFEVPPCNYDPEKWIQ

Variants of: B1
test_name: protein stability index of a GFP-peptide fusion (GPS, HEK-293T) (PSI 1-6); higher = more stable;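 also: lentivirally expressed fusions sorted by FACS into six bins by GFP to DsRed ratio, PSI derived from sequencing read proportions per bin multiplied by bin number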
protocol_conditions: c terminus: native
Items are presented alongside their recorded protein stability index.
Lab note: record just the number, no unit beside it.

Worked examples follow.
>  <mutation_spec>
G2R

>  <protein stability index>
2.58

$$$$
>  <mutation_spec>
L7C

>  <protein stability index>
2.75

$$$$
>  <mutation_spec>
S3N

>  <protein stability index>
1.59

$$$$

The variant E10V showed protein stability index equal to 1.08

The variant I22K showed protein stability index equal to 4.72

The variant A6T showed protein stability index equal to 1.53

The variant F9H showed protein stability index equal to 2.86

The variant Y16L showed protein stability index equal to 2.04

The variant F9I showed protein stability index equal to 2.07

The variant A1S showed protein stability index equal to 1.46

The variant E10R showed protein stability index equal to 1.97

The variant Y16N showed protein stability index equal to 2.2

The variant Q5Y showed protein stability index equal to 2.68

The variant E10G showed protein stability index equal to 1.83

The variant P18S showed protein stability index equal to 1.78

The variant S8K showed protein stability index equal to 2.09

The variant S3I showed protein stability index equal to 1.99

The variant A1P showed protein stability index equal to 2.5

The variant K20V showed protein stability index equal to 1.96

The variant Q23H showed protein stability index equal to 2.55

The variant Q23G showed protein stability index equal to 3.04

The variant Q5V showed protein stability index equal to 2.35
